Biological target: plasma kallikrein (Homo sapiens, UniProt P03952)
Construct: from tissue; host or cells: sodium citrate collected human plasma (78% final)
Sequence (P03952 391-638 limits assumed): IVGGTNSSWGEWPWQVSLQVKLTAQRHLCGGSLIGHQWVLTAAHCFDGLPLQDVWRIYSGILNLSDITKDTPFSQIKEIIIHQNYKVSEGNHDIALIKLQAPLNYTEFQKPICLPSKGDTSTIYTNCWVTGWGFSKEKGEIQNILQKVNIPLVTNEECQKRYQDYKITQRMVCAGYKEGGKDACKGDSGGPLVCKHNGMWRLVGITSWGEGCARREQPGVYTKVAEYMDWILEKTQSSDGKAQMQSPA
Sequence (P03952 20-390 partner limits assumed): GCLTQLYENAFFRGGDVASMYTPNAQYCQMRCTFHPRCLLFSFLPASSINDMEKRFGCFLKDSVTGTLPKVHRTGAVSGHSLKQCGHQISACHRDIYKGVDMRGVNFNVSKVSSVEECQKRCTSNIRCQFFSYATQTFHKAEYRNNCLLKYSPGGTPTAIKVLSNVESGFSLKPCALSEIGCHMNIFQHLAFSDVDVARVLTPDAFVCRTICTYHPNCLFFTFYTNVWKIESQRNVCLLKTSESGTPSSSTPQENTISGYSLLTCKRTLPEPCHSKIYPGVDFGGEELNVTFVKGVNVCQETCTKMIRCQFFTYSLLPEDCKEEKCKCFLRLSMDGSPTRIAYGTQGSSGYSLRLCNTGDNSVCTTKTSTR
Assay: Neat human plasma assay (contact pathway-activated plasma, FXIIa, PFR-AMC substrate)
Type: biochemical
Conditions: sodium citrate human plasma, 78% final plasma, 10 nM human FXIIa, 100 μM PFR-AMC, room temperature
Procedure: Neat Human and Rat Plasma Assay To analyze inhibition of plasma kallikrein in an ex vivo setting, the potency of compounds was measure in contact pathway-activated plasma assays. In a fluorogenic peptide substrate assay, test compounds dissolved in DMSO were added to sodium citrate collected human or rat plasma in a 96-well microplate. […] Fluorescence was immediately monitored by excitation/emission wavelengths of 360 nm/480 nm respectively over a period of 5 minutes in a microplate reader. […]
Catalogue of compounds with associated IC90

Examples with answers:
>  <Compound>
O=C(Nc1cc(NCc2cn3cc(C4CC4)ccc3n2)ccn1)OCc1cccc(Cl)c1

>  <Recorded metric>
IC90

>  <Observed measurement>
7.5 to 15 µM

$$$$
>  <Compound>
O=C(Nc1cc(NCc2cn3cc(C4CC4)ccc3n2)ncn1)OCc1cc(Cl)ccc1-n1cnnn1

>  <Recorded metric>
IC90

>  <Observed measurement>
≤ 2.5 µM

$$$$
>  <Compound>
O=C(Nc1cc(N2C[C@@H](O)C[C@@H]2c2cn3cc(C4CC4)ccc3n2)ncn1)OCc1cc(Cl)ccn1

>  <Recorded metric>
IC90

>  <Observed measurement>
≤ 2.5 µM

$$$$
>  <Compound>
O=C(Nc1cc(NCc2cn3cc(C4CC4)ccc3n2)ncn1)OCc1cc(Cl)ccn1

>  <Recorded metric>
IC90

>  <Observed measurement>
≤ 2.5 µM

$$$$
>  <Compound>
O=C(NCc1cc(Cl)ccc1-n1cnnn1)Nc1cc(NCc2cn3cc(C4CC4)ccc3n2)ccn1

>  <Recorded metric>
IC90

>  <Observed measurement>
2.5 to 7.5 µM

$$$$

Ask: Indicate its recorded IC90; the compound in question is `O=C(Nc1cc(OCc2cn3cc(C4CC4)ccc3n2)ccn1)OCc1cc(Cl)ccc1-n1cnnn1`
Result: 7.5 to 15 µM

Ask: Indicate its recorded IC90; the compound in question is CC(OC(=O)Nc1cc(NCc2cn3cc(C4CC4)ccc3n2)ccn1)c1cc(Cl)ccc1-n1cnnn1 (stereo not drawn)
Result: 2.5 to 7.5 µM

Ask: Indicate its recorded IC90; the compound in question is `O=C(Nc1cc(NCc2cn3cc(C4CC4)ccc3n2)ccn1)OCc1cc(Cl)ccc1-n1cnnn1`
Result: 2.5 to 7.5 µM

Ask: Indicate its recorded IC90; the compound in question is CC(OC(=O)Nc1cc(NCc2cn3cc(C4CC4)ccc3n2)ccn1)c1cccc(Cl)c1 (stereo not drawn)
Result: 2.5 to 7.5 µM
